The following compounds are shown together with reported disease control rating BCB values.
# Test system: Botrytis cinerea
# Experiment Notes: Direct protectant activity against broad bean grey mould (BCB)
# Type: in vivo
# Measurement Conditions: direct protectant foliar spray, 600 ppm, 4 days

CCCCCCNC1COC2(CCC(C(C)(C)C)CC2)C1 (stereo not drawn) [Compound 27] | 0 (less than 50% disease control)
CC(C)(C)CC(C)(C)NC1COC2(CCC(C(C)(C)C)CC2)C1 (stereo not drawn) | 0 (less than 50% disease control)
CCN(CC(C)(C)C)C1COC2(CCC(C(C)(C)C)CC2)C1 (stereo not drawn) | 0 (less than 50% disease control)

Exam item: Specify the recorded disease control rating BCB for CC(C)(C)C1CCC2(CC1)CC(CNC1CCCCC1)CO2 (stereo not drawn) [Compound 185] , system: Botrytis cinerea.
Marked response: 1 (about 50-80% disease control)

Exam item: Specify the recorded disease control rating BCB for CCCCCCCCCCNC1COC2(CCC(C(C)(C)C)CC2)C1 (stereo not drawn) , system: Botrytis cinerea.
Marked response: 0 (less than 50% disease control)

Exam item: Specify the recorded disease control rating BCB for CC(C)(C)C1CCC2(CC1)CC(NC1CCCC1)CO2 (stereo not drawn) , system: Botrytis cinerea.
Marked response: 0 (less than 50% disease control)
